Some molecules, each annotated with its measured Percent Effect.
- target.of.assay: Proteasome subunit beta (Trypanosoma cruzi) (UniProt O96673)
- Sequence (O96673 as listed by the source): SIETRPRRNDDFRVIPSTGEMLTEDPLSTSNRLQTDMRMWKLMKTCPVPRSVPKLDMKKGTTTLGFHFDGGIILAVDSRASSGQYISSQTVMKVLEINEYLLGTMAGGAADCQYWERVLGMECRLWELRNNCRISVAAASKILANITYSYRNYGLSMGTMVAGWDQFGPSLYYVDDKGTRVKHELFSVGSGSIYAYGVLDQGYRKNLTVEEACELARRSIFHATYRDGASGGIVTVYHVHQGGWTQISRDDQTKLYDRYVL
- assay.remarks: Trypanosoma cruzi proteasome chymotrypsin-like activity (TcProtChymo) assay. Further: in the data most compounds retested in dose-response had high values.
- Format: functional
- Parameters: scale not given: direction of the effect not stated beside the values
- details: 9.37 µM

molecule	Percent Effect (%)
CC(=O)N1CC[C@H]2OCC[C@@H](C(=O)N3CCCCO3)[C@@H]2C1	15
Cc1cc(C)n(CC2CN(Cc3nc(-c4ccoc4)no3)CCO2)n1 (stereo not drawn)	5.22
Cn1nc(CNC(=O)C2CCCC2)cc1C1CC1	2.79

----------
Percent Effect values by entry
- target.of.assay: Chromo domain-containing protein 1 (Saccharomyces cerevisiae (strain ATCC 204508 / S288c) (Baker's yeast))
- assay.remarks: ScCHD-1 Enzyme Inhibition Assay; further: in the data most compounds retested in dose-response had high values
- Type: functional
- Parameters: scale not given: direction of the effect not stated beside the values
- details: 30 µM

compound	unit.text	Percent Effect
COCC1CN(C(=O)C2=CCCCC2)Cc2cnn(CC3CC3)c21 (centres undefined)	%	-9.46
CCc1ncnc2c1CCN(C(=O)N1CCCC1)CC2	%	2.94
COc1cc(CN2CCN(c3cccc(OC)c3)C(=O)C2)cc(OC)c1	%	-2.05
Cc1cc(CN2CCC(CNC(=O)c3nccc4ccccc34)C2)[nH]n1 (centres undefined)	%	-2.74
Cc1ccc(-c2nnc(CN3CCc4cnc(C)nc4C3)o2)cc1	%	-10.7
O=c1oc(-c2ccc(F)cc2)nn1CN1CCN(C2CCCC2)CC1	%	-6.38
Cc1ccc(OCCC(=O)NC2CCc3nccn3C2)cc1 (centres undefined)	%	-2.38
O=C([C@H]1COC[C@H]2CN(C3CCCC3)C[C@H]21)N1CCCCO1	%	-3.46
CC1=NN(c2ccc(C(=O)N3CCCC(n4ccnc4)C3)cc2)CC1 (centres undefined)	%	-6.17
O=C(Cn1nc2c(cc1=O)CCCC2)N[C@@H](C(=O)O)c1ccccc1	%	-5.57
O=C(C1CCN(c2snc3ccccc23)CC1)N1CCCCCC1	%	-21.3
c1ccc(Oc2cc(CNCC3CNc4ccnn4C3)ccn2)cc1 (centres undefined)	%	-13.3
CCCc1noc(CN2CCCC2c2ccsc2)n1 (centres undefined)	%	6.54
CC(C(=O)Nc1ccc(N2CCCC2)nc1)n1cncn1 (centres undefined)	%	-10.4

----------
- target.of.assay: Tyrosyl-tRNA synthetase, putative (Trypanosoma cruzi (strain CL Brener))
- assay.remarks: Trypanosoma cruzi tyrosyl tRNA synthetase (TcYRS) _High Tyrosine SOP; further: in the data most compounds retested in dose-response had high values
- Format: functional
- Parameters: scale not given: direction of the effect not stated beside the values
- details: 30 µM
The entries below come with measured Percent Effect values attached.

molecule	Percent Effect
O=c1c2sccc2nc2n1CCN(Cc1cccs1)CC2	0%
CCc1ccc(S(=O)(=O)Nc2cc(C(=O)O)c(F)cc2F)s1	2.46%
NC(=O)C1(c2cnccn2)CCCN1Cc1cc2ccccc2o1 (stereo unspecified)	9.68%
Cc1cnn(CCNCc2csc(-c3ccc4c(c3)OCO4)n2)c1	1.47%
Clc1ccc2cccnc2c1CN1CCCC(Cn2cncn2)C1 (stereo unspecified)	7.92%
COCCn1nc(C(=O)N(C)Cc2cnn(C)c2)ccc1=O	5.32%
O=C(CCc1cscn1)NS(=O)(=O)c1ccc2ccccc2c1	8.42%
O=C(CCCn1cncn1)NC1(c2ccccc2)CCC1	3.23%
c1coc(-c2nnc(CN3CCOC(Cn4cccn4)C3)o2)c1 (stereo unspecified)	5.42%
O=C1OC2(CCNCC2)CN1CC(=O)N1CCCC1c1ccco1 (stereo unspecified)	5.82%
CC[C@@]1(O)CCN(C(=O)c2ccc(SC)cc2)C[C@H]1O	4.21%

----------
- Organism: Homo sapiens
- assay.remarks: To identify inhibition of the IFN signalling (Jak-Stat) pathway via expression of an eGFP reporter gene under the control of an IFN-stimulated response element (ISRE) containing MxA promoter.
- Format: functional
- Set-up: scale not given: direction of the effect not stated beside the values
- details: 30 µM

compound	unit.text	Percent Effect
O=C(NCc1ccc(-n2cncn2)nc1)c1ccc2c(c1)CCO2	%	14.7
CCC1=N[C@@]2(CC[C@@H]3CN(CC(=O)N(C)C)C[C@@H]32)C(=O)N1CC1CC1	%	4.45
O=S1(=O)COCCN1Cc1cccc(Cl)c1	%	17.7
CCCc1noc(CN2CCCC2c2ccsc2)n1 (stereo not given)	%	11.1
COc1ccc(CN(C)CC2(O)CCN(C(=O)c3cccn3C)C2)cc1 (stereo not given)	%	11.8
Cc1ccc(C(=O)N2CCn3cc(CN(C)Cc4ccco4)nc3C2)o1	%	0.489
Cc1cnn(C2CCCN(C(=O)Cc3cn4ccccc4n3)C2)c1 (stereo not given)	%	4.05
CC(=O)NCCC1CCCCN1S(=O)(=O)c1cccc(C#N)c1 (stereo not given)	%	4.41
O=C1CC2(CCN(CCO)CC2)CN1Cc1cc(F)cc(F)c1	%	-13.2
CCc1nc(CN(C)CC(c2cccs2)N2CCOCC2)no1 (stereo not given)	%	13.9
N#Cc1ccc(CN2CCC(c3ccnn3CCO)CC2)cc1	%	3.68
Cc1noc(C)c1-c1cccc(CC2CCN(C(=O)c3cc[nH]n3)C2)n1 (stereo not given)	%	15.2
COc1ccc2c(ccn2CCC(=O)O)c1	%	21.8
Cc1ccc(N2CCCC(NCC(=O)NCC3CC3)C2)nn1 (stereo not given)	%	-5.61
COc1ccc(C(=O)N2C[C@@H](C(=O)O)[C@H](c3ccccc3C)C2)c(O)c1	%	-12.1

----------
- Species on record: Homo sapiens
- assay.remarks: To identify inhibition of the IFN signalling (Jak-Stat) pathway via expression of an eGFP reporter gene under the control of an IFN-stimulated response element (ISRE) containing MxA promoter.
- Type: functional
- Design: scale not given: direction of the effect not stated beside the values
- details: 30 µM
readout.label: Percent Effect (%)

compound	readout.label	unit.text	measurement
Cn1nccc1C(=O)N1CCOC(Cc2cccnc2)C1 (stereo not drawn)	Percent Effect	%	7.36
O=C(NCc1ccncc1)N(Cc1ccccc1F)C1CC1	Percent Effect	%	5.89
CC(=O)Nc1cccc(OCCNC(=O)N(C)Cc2ccco2)c1	Percent Effect	%	-1.59
COC(=O)C(NC(=O)C(C)C)c1cc(F)ccc1F (stereo not drawn)	Percent Effect	%	22.8
Cn1cccc1C(=O)N1CCN(CC2CC2)c2ncccc2C1	Percent Effect	%	3.32
Cc1nn(C)c(C)c1CC(=O)N1CCCC(n2cccn2)C1 (stereo not drawn)	Percent Effect	%	-14.2
CCc1nc(CCNC(=O)Nc2ccc(C(=O)NC)cc2C)cs1	Percent Effect	%	40.4
CC(NC(=O)NCCCn1cccn1)c1ccc2c(c1)NC(=O)CO2 (stereo not drawn)	Percent Effect	%	15.4

----------
- target.of.assay: Arginase-2, mitochondrial (Homo sapiens)
- Sequence (whole entry): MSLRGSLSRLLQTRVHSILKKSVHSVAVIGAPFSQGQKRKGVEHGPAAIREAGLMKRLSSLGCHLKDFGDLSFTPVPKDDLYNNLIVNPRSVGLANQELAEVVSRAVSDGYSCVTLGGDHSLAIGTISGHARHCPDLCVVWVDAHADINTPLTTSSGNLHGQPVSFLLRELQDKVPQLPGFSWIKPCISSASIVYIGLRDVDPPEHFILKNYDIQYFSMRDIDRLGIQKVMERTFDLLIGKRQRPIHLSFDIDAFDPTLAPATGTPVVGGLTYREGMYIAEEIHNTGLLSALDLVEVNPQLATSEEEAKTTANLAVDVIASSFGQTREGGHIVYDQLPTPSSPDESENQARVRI
- assay.remarks: in vitro enzyme assay to detect the production of urea directly proportional to the activity of Arginase II; further: in the data most compounds retested in dose-response had high values
- Assay type: functional
- Design: scale not given: direction of the effect not stated beside the values
- details: 33.3 µM
Catalogue of Percent Effect values

compound	unit.text	Percent Effect
Cc1ccccc1C(=O)NCc1ccc(N2CCNC(=O)C2)cc1	%	-14.8
CCn1ccnc1CN1CCN(C(C)C(=O)N2CCC(C)CC2)CC1 (centres undefined)	%	-3.14
Cc1ccc2c(n1)N(CCN(C)C)CCN(C(=O)c1ccc[nH]1)C2	%	1.63
CCN(Cc1ccco1)C(=O)NCc1nnc2n1CCC2	%	3.81
COCCn1ccc(NC(=O)Nc2cccnc2)n1	%	-7.1
Cc1noc(C(C)C)c1C(=O)N1CCOCC1CC(=O)c1ccco1 (centres undefined)	%	1.18
CCOc1ncccc1NC(=O)N1CCc2ccccc2C1	%	7.95
CCC1=N[C@@]2(CC[C@@H]3CN(Cc4ccc(Cl)cc4)C[C@@H]32)C(=O)N1C	%	-13.1
CCn1cc(CN2CCCN(C(=O)CCc3ccncc3)CC2)cn1	%	-0.712
O=C1CC(N(C(=O)c2ccc3[nH]c4c(c3c2)CCCC4)C2CC2)C(=O)N1 (centres undefined)	%	-3.8
CC(=O)N1CCC(C(=O)c2cc(C)cnc2N)CC1	%	3.03
CN(CCc1ccccc1)Cc1cc(C(=O)N2CCCC2(C)C)no1	%	-17.6
NC(=O)c1cnn2c1NCC(CNCCc1ccco1)C2 (centres undefined)	%	3.45
NCCn1nc(C2CCN(C(=O)CC3CCCCC3)C2)c2nccnc21 (centres undefined)	%	-3.5
CCc1cnc(CN(C(C)=O)C2CCN(CCS(C)(=O)=O)C2)o1 (centres undefined)	%	9.27
O=C(NCc1cc[nH]n1)NCC(c1ccccc1Cl)N1CCCC1 (centres undefined)	%	4.22
Cc1ccc(Cc2cnc(NC(=O)C3CNC(=O)N3)s2)cc1F (centres undefined)	%	1.5
Cc1noc(C(C)N2CCN(CCCN3CCCC3=O)CC2)n1 (centres undefined)	%	-8.02
COc1c(CNC(c2ccc(F)cc2)C(C)(C)C)c(C)nn1C (centres undefined)	%	-7.28
CCc1n[nH]c(C2CN(C(=O)Cn3ccccc3=O)CCO2)n1 (centres undefined)	%	6.67
CCc1c(C)nc2n(c1=O)CC(C(=O)Nc1nc3c(s1)CCCC3)CS2 (centres undefined)	%	-4.52
Cc1nc(C)n(C2CCCN(C(=O)c3csnn3)C2)n1 (centres undefined)	%	-7.21
CCCC(C)(C)NC(=O)c1ccc(CC2CC(=O)NC2=O)cc1 (centres undefined)	%	2.27
CNS(=O)(=O)Cc1ccc(CNc2cncc(-n3cccn3)n2)cc1	%	0
Cc1cc(C)nc(CCNC(=O)C(c2ccc(F)cc2)N(C)C)n1 (centres undefined)	%	-31.9
O=C(C1CCN(c2snc3ccccc23)CC1)N1CCCCCC1	%	-4.52
CC(=O)N1CCCC1c1nccnc1Nc1cccc(C)n1 (centres undefined)	%	0.699
Cc1cc(NC(=O)CN2CCN(c3nccs3)C(C)C2)n(C)n1 (centres undefined)	%	0.924
CC(=O)Nc1nc(C2CCN(CC(N)=O)CC2)cs1	%	3.48
CSc1ccc(NC(=O)Nc2ccc3c(c2)N(S(C)(=O)=O)CC3)cc1	%	-93.5
CNS(=O)(=O)c1cccc(CNC(=O)c2c(C)nn(C)c2C)c1	%	1.07
CN(CC(=O)N1CCCC1c1cnn(C)c1)c1ccc(Cl)cn1 (centres undefined)	%	2.52
O=C1NC(c2ccccc2)=N[C@@]12CC[C@@H]1CN(Cc3ccco3)C[C@@H]12	%	-47.5
Cc1cc(CN(C)C2CCCN(Cc3noc(C4CC4)n3)C2)no1 (centres undefined)	%	-1.8
CCOc1ccc(NC(=O)c2cnc(N3CCCC3)nc2C)cc1	%	3.23
Cc1cnn(CC2CCCN2C(=O)c2nccc3ccccc23)c1 (centres undefined)	%	-1.05
CC(O)CN1CCN(C(=O)c2ccc(Cn3cccc3)cc2)CC1 (centres undefined)	%	-6.81
Cc1ccccc1[C@@H]1CN(C(=O)c2ccc3[nH]nnc3c2)C[C@H]1C(=O)O	%	0.399
CC(=O)N1CCCN(C(=O)c2ccn(-c3cccc(Cl)c3)n2)CC1	%	-1.42
O=C(c1ccncc1F)N1CCc2ncnc(-c3ccncc3)c2CC1	%	-0.955
O=C(N[C@@H]1CN(Cc2ccccc2)C[C@@H]2CCCO[C@@H]21)C1CC1	%	-49.3
Cc1nc(CN(C)C2CCN(CC3CCCCC3)C2)no1 (centres undefined)	%	-7.95
CCN(CC)C(CNS(=O)(=O)c1ccc(C(=O)NC)cc1)c1ccco1 (centres undefined)	%	-1.67
COc1ccccc1OC1(C(=O)O)CCN(c2nccnc2C)CC1	%	-5.19
